Test system: Bacillus subtilis
test.method.notes: Antimicrobial activity against Bacillus subtilis after 96 hr incubation
Format: functional
Set-up: concentration or dose not given beside the values
Entries and their measured Inhibition follow.
Numbers only; they are read as %.

Completed entries (count: 5):
# compound, test.system, measure.unit, Inhibition
rows = [
    ("C#Cc1cc(C)oc(=O)c1", "Bacillus subtilis", "%", 19.3),
    ("CC(=O)Nc1ccc(C#Cc2cc(C)oc(=O)c2)cc1", "Bacillus subtilis", "%", 6.8),
    ("CCCCCc1cc(C)oc(=O)c1", "Bacillus subtilis", "%", 26.1),
    ("Cc1cc(C#CCOC2CCCCO2)cc(=O)o1 (configuration not stated)", "Bacillus subtilis", "%", 22.7),
    ("Cc1cc(C#Cc2ccc([N+](=O)[O-])cc2)cc(=O)o1", "Bacillus subtilis", "%", 6.8),
]

Value lookup for Inhibition; key = CCCC#Cc1cc(C)oc(=O)c1 20.5

Value lookup for Inhibition; key = Cc1cc(CCc2ccccc2)cc(=O)o1 20.5

====

System: Staphylococcus aureus
test.method.notes: Antimicrobial activity against Staphylococcus aureus after 96h incubation
Assay type: functional
metric.name: Inhibition (mm)
Numbers only; they are read as mm.

Completed entries (count: 8):
# molecule, Inhibition [mm]
measured = [
    ("Cc1cc(C#Cc2ccc([N+](=O)[O-])cc2)cc(=O)o1", 0),
    ("CCCCCC#Cc1cc(C)oc(=O)c1", 21),
    ("Cc1cc(/C=C/c2ccccc2)cc(=O)o1", 0),
    ("CCCCc1cc(C)oc(=O)c1", 0),
    ("Cc1cc(-c2ccc(Cl)cc2)cc(=O)o1", 20),
    ("Cc1cc(-c2ccc(C=O)cc2)cc(=O)o1", 18),
    ("CC(=O)Nc1ccc(C#Cc2cc(C)oc(=O)c2)cc1", 16),
    ("CCCC#Cc1cc(C)oc(=O)c1", 21),
]

Value lookup for Inhibition; key = CCCC/C=C/c1cc(C)oc(=O)c1 0

Value lookup for Inhibition; key = Cc1cc(C#CCOC2CCCCO2)cc(=O)o1 (centres undefined) 30

Value lookup for Inhibition; key = CCCCCCCCc1cc(C)oc(=O)c1 18

====

Entries and their measured Inhibition follow.
Test system: Candida albicans
test.method.notes: Antimicrobial activity against Candida albicans after 48 hr incubation
Assay type: functional
Numbers only; they are read as mm.

Completed entries (count: 2):
# compound, metric.name, measure.unit, reading
data = [
    ("CCCCCCC#Cc1cc(C)oc(=O)c1", "Inhibition", "mm", 0),
    ("CCCC#Cc1cc(C)oc(=O)c1", "Inhibition", "mm", 11),
]

Please provide the recorded Inhibition for CCCCCC#Cc1cc(C)oc(=O)c1 , tested on Candida albicans. 22

Please provide the recorded Inhibition for Cc1cc(CCc2ccccc2)cc(=O)o1 , tested on Candida albicans. 0

Please provide the recorded Inhibition for COc1ccc(-c2cc(C)oc(=O)c2)cc1 , tested on Candida albicans. 0

Please provide the recorded Inhibition for Cc1cc(-c2ccc(Cl)cc2)cc(=O)o1 , tested on Candida albicans. 0

Please provide the recorded Inhibition for CCCCCCCc1cc(C)oc(=O)c1 , tested on Candida albicans. 16

Please provide the recorded Inhibition for CCCCC#Cc1cc(C)oc(=O)c1 , tested on Candida albicans. 20

Please provide the recorded Inhibition for Cc1ccc(-c2cc(C)oc(=O)c2)cc1 , tested on Candida albicans. 0

Please provide the recorded Inhibition for CCCCc1cc(C)oc(=O)c1 , tested on Candida albicans. 0

Please provide the recorded Inhibition for CCCCCCc1cc(C)oc(=O)c1 , tested on Candida albicans. 11

Please provide the recorded Inhibition for CCC/C=C/c1cc(C)oc(=O)c1 , tested on Candida albicans. 16

Please provide the recorded Inhibition for CCCCCc1cc(C)oc(=O)c1 , tested on Candida albicans. 0

Please provide the recorded Inhibition for C#Cc1cc(C)oc(=O)c1 , tested on Candida albicans. 36

Please provide the recorded Inhibition for Cc1cc(C#Cc2ccccc2)cc(=O)o1 , tested on Candida albicans. 0

Please provide the recorded Inhibition for Cc1cc(/C=C/c2ccccc2)cc(=O)o1 , tested on Candida albicans. 0

Please provide the recorded Inhibition for CCCCCC/C=C/c1cc(C)oc(=O)c1 , tested on Candida albicans. 20

Please provide the recorded Inhibition for Cc1cc(-c2ccccc2)cc(=O)o1 , tested on Candida albicans. 0

Please provide the recorded Inhibition for CC(=O)Nc1ccc(C#Cc2cc(C)oc(=O)c2)cc1 , tested on Candida albicans. 0

Please provide the recorded Inhibition for Cc1cc(C#Cc2ccc([N+](=O)[O-])cc2)cc(=O)o1 , tested on Candida albicans. 0

====

Tested on: Escherichia coli
test.method.notes: Antimicrobial activity against the Escherichia coli after 96 hr incubation
Format: functional
Design: concentration or dose not given beside the values
Entries and their measured Inhibition follow.

# structure.smiles, Inhibition
records = [
    ("CCCCCCc1cc(C)oc(=O)c1", "28.4%"),
    ("Cc1cc(-c2ccccc2)cc(=O)o1", "22.7%"),
    ("CCCCCC/C=C/c1cc(C)oc(=O)c1", "22.7%"),
    ("CCCCCCCCc1cc(C)oc(=O)c1", "25%"),
    ("CCc1cc(C)oc(=O)c1", "23.8%"),
    ("Cc1ccc(-c2cc(C)oc(=O)c2)cc1", "20.4%"),
    ("CCCCC/C=C/c1cc(C)oc(=O)c1", "20.5%"),
    ("Cc1cc(-c2ccc(C=O)cc2)cc(=O)o1", "17%"),
]

Value lookup for Inhibition; key = CCC/C=C/c1cc(C)oc(=O)c1 21.6%

====

Tested on: Escherichia coli
test.method.notes: Antimicrobial activity against Escherichia coli after 96h incubation
Format: functional
Respond with fulfilled for Inhibition values of 20 mm and above, not fulfilled for values below.

Has CCCCC/C=C/c1cc(C)oc(=O)c1 a recorded Inhibition greater than or equal to 20 mm? not fulfilled

Has CCCCCCc1cc(C)oc(=O)c1 a recorded Inhibition greater than or equal to 20 mm? fulfilled

Has CCCC/C=C/c1cc(C)oc(=O)c1 a recorded Inhibition greater than or equal to 20 mm? not fulfilled

Has CCCCCCCCc1cc(C)oc(=O)c1 a recorded Inhibition greater than or equal to 20 mm? fulfilled

Has CCc1cc(C)oc(=O)c1 a recorded Inhibition greater than or equal to 20 mm? fulfilled

Has Cc1cc(C#Cc2ccc([N+](=O)[O-])cc2)cc(=O)o1 a recorded Inhibition greater than or equal to 20 mm? not fulfilled

Has CCCCCc1cc(C)oc(=O)c1 a recorded Inhibition greater than or equal to 20 mm? fulfilled

Has CC(=O)Nc1ccc(C#Cc2cc(C)oc(=O)c2)cc1 a recorded Inhibition greater than or equal to 20 mm? not fulfilled

====

Tested on: Escherichia coli
test.method.notes: Antimicrobial activity against the Escherichia coli after 96 hr incubation
Type: functional
Design: concentration or dose not given beside the values
metric.name: Inhibition (%)
Numbers only; they are read as %.

Completed entries (count: 8):
# structure.smiles, Inhibition (%)
rows = [
    ("CCCCCc1cc(C)oc(=O)c1", 25),
    ("CCCC#Cc1cc(C)oc(=O)c1", 25),
    ("CCCCCCC#Cc1cc(C)oc(=O)c1", 19.3),
    ("CCCC/C=C/c1cc(C)oc(=O)c1", 20.5),
    ("COc1ccc(-c2cc(C)oc(=O)c2)cc1", 22.7),
    ("Cc1cc(-c2ccc(Cl)cc2)cc(=O)o1", 22.7),
    ("CCCCC#Cc1cc(C)oc(=O)c1", 22.7),
    ("CCCCc1cc(C)oc(=O)c1", 25),
]

Please provide the recorded Inhibition for CCCCCCCc1cc(C)oc(=O)c1 , tested on Escherichia coli. 19.3

Please provide the recorded Inhibition for C#Cc1cc(C)oc(=O)c1 , tested on Escherichia coli. 18.2

Please provide the recorded Inhibition for CCCCCC#Cc1cc(C)oc(=O)c1 , tested on Escherichia coli. 21.6

====

Test system: Staphylococcus aureus
test.method.notes: Antimicrobial activity against Staphylococcus aureus after 96h incubation
Assay type: functional
metric.name: Inhibition
Number first, unit second.

Please provide the recorded Inhibition for Cc1ccc(-c2cc(C)oc(=O)c2)cc1 , tested on Staphylococcus aureus. 0 mm

Please provide the recorded Inhibition for COc1ccc(-c2cc(C)oc(=O)c2)cc1 , tested on Staphylococcus aureus. 0 mm

Please provide the recorded Inhibition for Cc1cc(CCc2ccccc2)cc(=O)o1 , tested on Staphylococcus aureus. 0 mm

====

Test system: Candida albicans
test.method.notes: Antimicrobial activity against Candida albicans after 48 hr incubation
Format: functional
Entries and their measured Inhibition follow.
Numbers only; they are read as mm.

Completed entries (count: 5):
# compound, test.system, Inhibition, mm
records = [
    ("CCCCC/C=C/c1cc(C)oc(=O)c1", "Candida albicans", 21),
    ("CCCCCCCCc1cc(C)oc(=O)c1", "Candida albicans", 20),
    ("Cc1cc(C#CCOC2CCCCO2)cc(=O)o1 (stereo unspecified)", "Candida albicans", 13),
    ("Cc1cc(-c2ccc(C=O)cc2)cc(=O)o1", "Candida albicans", 0),
    ("CCc1cc(C)oc(=O)c1", "Candida albicans", 0),
]

Value lookup for Inhibition; key = CCCC/C=C/c1cc(C)oc(=O)c1 24
